The measured values listed here are drawn from PubChem BioAssay.

Tested on: Chordin-like protein 2 (CHRDL2)
protocol-description: CHRDL2 small-molecule binders, primary screen, biochemical, small-molecule microarray, 635 nm fluorescence (AID 1126);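 note: printed compound slides probed with Chrdl2 protein at 4 µg/mL for 1 h at 4 C; score merges 667 nm emission intensity with signal to noise over three replicate slides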
condition-set: small-molecule microarray binding, fluorescence 635 nm; higher = more signal
Rule: class 1 for composite z-score not less than -0.2, class 0 for anything less.

CC(C)(C)OC(=O)CC[C@]1(C(=O)NCCN2CCOCC2)N=C(c2ccc(OCCCO)cc2)O[C@H]1c1ccccc1N=[N+]=[N-] = class 1
CCOC(=O)[C@@H]1[C@@H]2C(=O)N(CC)C(=O)[C@@H]2C[C@@H]1Sc1ccccc1 = class 0
COc1ccc([Si](C)(C)[C@H]2[C@H](CCn3cc([C@H](O)c4ccccc4)nn3)O[C@@]3(C(=O)N(Cc4ccc(N5CCOC5=O)cc4)c4ccccc43)[C@@H]2C)cc1 = class 0

I'd appreciate it if you could say whether [N-]=[N+]=Nc1ccccc1[C@H]1OC(c2ccc(OCCCO)cc2)=N[C@@]1(CCS(=O)(=O)c1ccccc1)C(=O)N1CCCCC1 has composite z-score at least equal to -0.2.
class 1

I'd appreciate it if you could say whether CCOC(=O)C[C@H]1[C@H](OC(=O)Cc2ccc3c(c2)OCO3)[C@@H](NC(=O)C2CCCCC2)c2cc(OCCCO)ccc2N1C(=O)c1ccc2ccccc2n1 has composite z-score at least equal to -0.2.
class 1

I'd appreciate it if you could say whether CC(C)(C)OC(=O)CC[C@]1(C(=O)O)N=C(c2ccc(OCCCO)cc2)O[C@H]1c1ccccc1 has composite z-score at least equal to -0.2.
class 0
